tested_on: T1, monkey (Rhesus macaque) 4-1BB (r4-1BB) on transfected CHO cells (monkey (Rhesus macaque), UniProt Q07011 24-255 (human entry))
T1 construct: also called rm4-1BB; CHO-r4-1BB
T1 chain: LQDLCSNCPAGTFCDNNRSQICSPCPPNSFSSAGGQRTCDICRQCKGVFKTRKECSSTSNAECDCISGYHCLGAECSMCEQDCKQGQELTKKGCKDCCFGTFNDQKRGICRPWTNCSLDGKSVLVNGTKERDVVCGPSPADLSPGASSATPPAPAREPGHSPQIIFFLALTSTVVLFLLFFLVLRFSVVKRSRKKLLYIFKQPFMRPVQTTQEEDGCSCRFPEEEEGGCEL
procedure_summary: flow cytometry on transfected CHO cells;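 also: antibodies tested at 1 µg/ml on CHO cells for 30 min at 4 °C, binding detected with FITC- or PE-labeled anti-mouse IgG Fc secondary by flow cytometry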
assay_readout: binding result

45-8E2 (antibody, V domains shown, mouse antibody purified from ascites) VH: EVKLLESGGGLVQPGGSLKLSCAASGFDFSRYWMSWVRQAPGKGLEWIGEIHPDSSAINYTPSLKDKFIISRDNAKNTLYLQMSKVRSEDTALYYCARSYYGRVFDYWGQGTTLTVSS VL: DIVMTQSPATLSVTPGDRVSLSCRASQSISDYLHWYQQKSHESPRLLIKYASQSISGIPPRFSGSGSGSDFTLSINSVEPEDVGMYYCQDGHSFPPTFGAGTKLELK; binds
45-7G9 (antibody, V domains shown, mouse antibody purified from ascites) VH: QVQLQQPGSALVRPGASVKLSCKASGYTFSNYWIHWVKQRHGQGLEWIGNIYPASDYTNYDEKFKNKGTLTVDTSSSTAYMHLSSLTSEDSAVYYCSRGYFGSLDYWGQGTSVTVSA VL: DILLTQSPAILSVNPGERVSFSCRASQPIGTGIHWYQQRTNGSPRLLIKSASESISGIPSRFSGSGSGTDFTLTINNVESDDVGDYYCQQSYSWPTTFGGGTKLKIN; binds

Data credit: patent US20240092922A1
